Assay: Selectivity index, ratio of CC50 for human HeLa cells to IC50 for Plasmodium falciparum 3D7 ring stage cells
Type: functional
Answer each item with its documented Ratio CC50/IC50.

[in] Specify measured Ratio CC50/IC50 for Cc1cn([C@H]2C[C@H](N=[N+]=[N-])[C@@H](CO)O2)c(=O)n(Cc2cccc(Nc3ccnc4cc(Cl)ccc34)c2)c1=O .
[out] >625

[in] Provide only the value of recorded Ratio CC50/IC50 for Cc1cn([C@H]2C[C@H](NC(=O)NCCNc3ccnc4cc(Cl)ccc34)[C@@H](CO[Si](c3ccccc3)(c3ccccc3)C(C)(C)C)O2)c(=O)[nH]c1=O
[out] 64.3

[in] // fetch Ratio CC50/IC50 given entry OCCNc1ccnc2cc(Cl)ccc12
[out] >45.5

[in] Answer with the recorded Ratio CC50/IC50 of Cc1cn([C@H]2C[C@H](NC(=O)NCCCCCNc3ccnc4cc(Cl)ccc34)[C@@H](CO)O2)c(=O)[nH]c1=O only.
[out] >19.3

[in] Could you please provide reported Ratio CC50/IC50 for Cc1cn([C@H]2C[C@H](NC(=O)C(=O)NCCCCCNc3ccnc4cc(Cl)ccc34)[C@@H](CO)O2)c(=O)[nH]c1=O ? Thanks!
[out] >51.5

[in] Input CCOC(=O)C(=O)N[C@H]1C[C@H](n2cc(C)c(=O)[nH]c2=O)O[C@@H]1CO[Si](c1ccccc1)(c1ccccc1)C(C)(C)C , output reported Ratio CC50/IC50.
[out] 5.75

[in] Using the record for NCCCCCNc1ccnc2cc(Cl)ccc12 , state its measured Ratio CC50/IC50.
[out] >435.7

[in] Answer with the recorded Ratio CC50/IC50 of Cc1cn([C@H]2C[C@H](NC(=O)CC3CCC4(CC3)OOC3(OO4)C4CC5CC(C4)CC3C5)[C@@H](CO[Si](c3ccccc3)(c3ccccc3)C(C)(C)C)O2)c(=O)[nH]c1=O (stereo partly drawn) only.
[out] >370.4

[in] Supply recorded Ratio CC50/IC50 for Cc1cn([C@H]2C[C@H](NC(=O)NCCCCCNc3ccnc4cc(Cl)ccc34)[C@@H](CO[Si](c3ccccc3)(c3ccccc3)C(C)(C)C)O2)c(=O)[nH]c1=O here.
[out] 62.3

[in] Give recorded Ratio CC50/IC50. Cc1cn([C@H]2C[C@H](N=[N+]=[N-])[C@@H](CO[C@H]3O[C@@H]4O[C@@]5(C)CC[C@H]6[C@H](C)CC[C@@H]([C@H]3C)[C@@]46OO5)O2)c(=O)[nH]c1=O
[out] >3333.3

[in] State, in one line, measured Ratio CC50/IC50 of Cc1cn([C@H]2C[C@H](NC(=O)C(=O)NCCCCCNc3ccnc4cc(Cl)ccc34)[C@@H](CO[Si](c3ccccc3)(c3ccccc3)C(C)(C)C)O2)c(=O)[nH]c1=O
[out] 75.4

[in] Fill in Ratio CC50/IC50 for record C[C@H]1[C@@H](O)O[C@@H]2O[C@@]3(C)CC[C@H]4[C@H](C)CC[C@@H]1[C@@]24OO3
[out] >3333.3

[in] Identify the reported Ratio CC50/IC50 for the following entry. Cc1cn([C@H]2C[C@H](N=[N+]=[N-])[C@@H](CO)O2)c(=O)n(CCNc2ccnc3cc(Cl)ccc23)c1=O
[out] >217.4

[in] Supply recorded Ratio CC50/IC50 for Cc1cn([C@H]2C[C@H](NC(=O)NCCNc3ccnc4cc(Cl)ccc34)[C@@H](CO)O2)c(=O)[nH]c1=O here.
[out] >28.3

[in] // fetch Ratio CC50/IC50 given entry Cc1cn([C@H]2C[C@H](NC(=O)CC3CCC4(CC3)OOC3(OO4)C4CC5CC(C4)CC3C5)[C@@H](CO)O2)c(=O)[nH]c1=O (stereo partly drawn)
[out] 106.3

[in] Write down Ratio CC50/IC50 measured for item NCCNc1ccnc2cc(Cl)ccc12
[out] 2114.7

[in] Please supply the value of reported Ratio CC50/IC50 for the item OCc1cccc(Nc2ccnc3cc(Cl)ccc23)c1
[out] >70.4

[in] Quick one: give measured Ratio CC50/IC50 for Cc1cn([C@H]2C[C@H](n3cc(CO[C@H]4O[C@@H]5O[C@@]6(C)CC[C@H]7[C@H](C)CC[C@@H]([C@H]4C)[C@@]57OO6)nn3)[C@@H](CO)O2)c(=O)[nH]c1=O
[out] >370.4

Reference for the values: ChEMBL document CHEMBL2069294
